- method summary: Photohemolysis in human RBC assessed as concentration required to 50% hemolysis under light exposure for 5 mins
- Format: ADME, cell-based, Erythrocyte
- stated conditions: human red blood cells, read-out: Activity
Quick list: HC50 at 5 min per entry.
test readout: HC50 at 5 min (nM)

molecule	test readout	measurement unit	censor symbol	measured result
CCCOC(C)C1=C(C)c2cc3[nH]c(cc4nc(cc5[nH]c(cc1n2)c(C)c5CCC(=O)NCCO)C(CCC(=O)NCCO)=C4C)c(C)c3C(C)OCCC (centres undefined) [HEMATOPORPHYRIN PROPYLETHER ETHANOLAMIDE]	HC50 at 5 min	nM	=	90
C=Cc1c(C)c2cc3nc(c4c5[nH]c(cc6nc(cc1[nH]2)C(C)=C6CC)c(C)c5C(=O)[C@@H]4C(=O)OC)[C@@H](CCC(=O)OC)[C@@H]3C [METHYL PHEOPHORBIDE A]	HC50 at 5 min	nM	>	525
C=Cc1c(C)c2cc3nc(c(CC(=O)OC)c4[nH]c(cc5nc(cc1[nH]2)C(C)=C5CC)c(C)c4C(=O)NCCO)C(CCC(=O)OC)C3C (centres undefined) [PHEOPHORBIDE A ETHANOLAMIDE]	HC50 at 5 min	nM	=	80
CC1=C(CCC(=O)O)c2cc3nc(cc4[nH]c(cc5[nH]c(cc1n2)c(C)c5C(C)O)c(C)c4C(C)O)C(C)=C3CCC(=O)O (centres undefined)	HC50 at 5 min	nM	=	170
